Hello, the source for this data is the supplement of paper PMC11780869, in case you need it.

System: Bacillus subtilis
Experiment: cleaved RNA product abundance (RNA/gDNA barcode ratio) relative to median wild-type variant (ratio to wild type); higher = more accumulation of the downstream cleavage product
Conditions: experiment (reporter, strain, medium): exp 8a: truncated aprE reporter, strain BJT201 with 2% xylose (RNase J1 expressed); cleavage site: glnRA (positions -5 to +31 mutated)
Label true when cleaved RNA product abundance is at or above 0.3; anything below gets false.

Does the reported cleaved RNA product abundance for CGACATGTCCCGCTTCTTTCATTAATCCGTTAGCAACTGTTTTTCTATATTCATTTACCTTTTAAGAGGAGGAAT fall at or above the 0.3 mark?
false

Also CGACATGTCCCGCTTCTTTCATTAATCCTTTAGCAACTGTTATGCTATATACATTTACCTTTTAAGAGGAGGAAT , if possible.
true

Also CGACATGTCCCGCTTCTTTCATTAATACGTTAGCAACTGTTTTTCTATATACATTTACCTTTTAAGAGGAGGAAT , if possible.
true

Also CGACATGTCCCGCTTCTTTCATTAATCCGTTGGCAATTGTTTTGCTATATACATTTACCTTTTAAGAGGAGGAAT , if possible.
true

Also CGACATGTCCCGCTTCTTTCATTAATCCGTTATCAACTGCTTTGCTATATACATTTACCTTTTAAGAGGAGGAAT , if possible.
false

Also CGACATGTCCCGCTTCTTTCATTAATCCGTTACCAACTTTTTTGCTATATACATTTACCTTTTAAGAGGAGGAAT , if possible.
false

---

Tested on: Bacillus subtilis
Assay: cleaved RNA product abundance (RNA/gDNA barcode ratio) relative to median wild-type variant (ratio to wild type); higher = more accumulation of the downstream cleavage product
Settings: experiment (reporter, strain, medium): exp 4a: truncated aprE reporter, strain BJT201 with 2% xylose (RNase J1 expressed); cleavage site: cggR-gapA (positions -7 to +36 mutated)
Items are presented alongside their recorded cleaved RNA product abundance.
Reply with the value as a number alone.

{"SEQUENCE_STRING": "ACAGACGAAGGAGCCGCAAAGAAGTTATTAAGGGATGAATAAACCCTAAATATAAATATCTCTCACTTATTTAAA", "cleaved RNA product abundance": 0.4}

May I ask what cleaved RNA product abundance has been recorded for ACAGACGAAGGAGCCGCAAAGAAGTTATTAAGGGATGAATATTCCCTCAATAAAAATATCTCTCACTTATTTAAA ?
0.156

Also ACAGACGAAGGAGCCGCAAAGAAGTTATTAAGGAATGAGTAATCCCTCAATATAAATATCTCTCACTTATTTAAA , if possible.
0.131

Also ACAGACGAAGGAGCCGCAAAGAAGTTATTATGGGATGAAAAATCCCTCAATATAAATATCTCTCACTTATTTAAA , if possible.
0.334

---

Tested on: Bacillus subtilis
Assay: cleaved RNA product abundance (RNA/gDNA barcode ratio) relative to median wild-type variant (ratio to wild type); higher = more accumulation of the downstream cleavage product
Details: experiment (reporter, strain, medium): exp 8a: truncated aprE reporter, strain BJT201 with 2% xylose (RNase J1 expressed); cleavage site: glnRA (positions -5 to +31 mutated)
Items are presented alongside their recorded cleaved RNA product abundance.
Reply with the value as a number alone.

Consider the worked cases shown below.
{"SEQUENCE_STRING": "CGACATGTCCCGCTTCTTTCATTAATACGTTAGCAACTGTTTTGCTATATACATTCACCTTTTAAGAGGAGGAAT", "cleaved RNA product abundance": 0.695}
{"SEQUENCE_STRING": "CGACATGTCCCGCTTCTTTCATTAATACGTTAGCAACTGTTTTGCTACATACATTTACCTTTTAAGAGGAGGAAT", "cleaved RNA product abundance": 0.381}
{"SEQUENCE_STRING": "CGACATGTCCCGCTTCTTTCATTAATCCGTTACCAACTGTTTTGATATATACATTTACCTTTTAAGAGGAGGAAT", "cleaved RNA product abundance": 0.276}

May I ask what cleaved RNA product abundance has been recorded for CGACATGTCCCGCTTCTTTCATTAATCCATTAGCAACTGTTTTGCTATATACATTTACTTTTTAAGAGGAGGAAT ?
0.808

Also CGACATGTCCCGCTTCTTTCATTATTCCGTTAGCAACTATTTTGCTATATACATTTACCTTTTAAGAGGAGGAAT , if possible.
1.91

Also CGACATGTCCCGCTTCTTTCATTAATCCGTTAGCAACTGTTTTCCTATAGACATTTACCTTTTAAGAGGAGGAAT , if possible.
0.36

Also CGACATGTCCCGCTTCTTTCATTAATCCGTTAGCAACTGATTTACTATATACATTTACCTTTTAAGAGGAGGAAT , if possible.
0.502

Also CGACATGTCCCGCTTCTTTCATTAATCCTTCAGCAACTGTTTTGCTATATACATTTACCTTTTAAGAGGAGGAAT , if possible.
0.478

Also CGACATGTCCCGCTTCTTTCATTAATCCGTTAGCAACTGTTTTACTATAAACATTTACCTTTTAAGAGGAGGAAT , if possible.
0.553

Also CGACATGTCCCGCTTCTTTCATTAATCCGTTAGCAACTGTTTTACGATATACATTTACCTTTTAAGAGGAGGAAT , if possible.
0.559

Also CGACATGTCCCGCTTCTTTCATTAATCCGTAAGCAACTGTTTTGCTAAATACATTTACCTTTTAAGAGGAGGAAT , if possible.
0.36

Also CGACATGTCCCGCTTCTTTCATTAATCCGTTAGAAACTGTTTTGCTATATAAATTTACCTTTTAAGAGGAGGAAT , if possible.
0.256

Also CGACATGTCCCGCTTCTTTCATTAATCCGTCAACAACTGTTTTGCTATATACATTTACCTTTTAAGAGGAGGAAT , if possible.
0.384

Also CGACATGTCCCGCTTCTTTCATTAATCCGTTAGCAACTGTGTTACTATATACATTTACCTTTTAAGAGGAGGAAT , if possible.
0.274

Also CGACATGTCCCGCTTCTTTCATTAATCCGTAAGCAACTGTATTGCTATATACATTTACCTTTTAAGAGGAGGAAT , if possible.
0.367

---

Tested on: Bacillus subtilis
Experiment: cleaved RNA product abundance (RNA/gDNA barcode ratio) relative to median wild-type variant (ratio to wild type); higher = more accumulation of the downstream cleavage product
Conditions: experiment (reporter, strain, medium): exp 4a: truncated aprE reporter, strain BJT201 with 2% xylose (RNase J1 expressed); cleavage site: cggR-gapA (positions -7 to +36 mutated)
ENDPOINT_NAME: cleaved RNA product abundance
Reply with the value as a number alone.

May I ask what cleaved RNA product abundance has been recorded for ACAGACGAAGGAGCCGCAAAGTAGTTAATAATGGATGAATAATCCCTCAATATAAATATCTCTCACTTATTTAAA ?
0.0855

Also ACAGACGAAGGAGCCGCAAAGAAGTTATTAAGGGATGAATATTCCCGCAATATAAATATCTCTCACTTATTTAAA , if possible.
0.221

---

Items are presented alongside their recorded cleaved RNA product abundance.
Test system: Bacillus subtilis
Experiment: cleaved RNA product abundance (RNA/gDNA barcode ratio) relative to median wild-type variant (ratio to wild type); higher = more accumulation of the downstream cleavage product
Details: experiment (reporter, strain, medium): exp 2b: truncated aprE reporter, strain BJT200; cleavage site: cggR-gapA (positions -7 to +36 mutated)
Reply with the value as a number alone.

{"SEQUENCE_STRING": "ACAGACGAAGGAGCCGCAAAGAAGTTATTAAGTGATGAATAATCCCTCATTATAAATATCTCTCACTTATTTAAA", "cleaved RNA product abundance": 0.0978}
{"SEQUENCE_STRING": "ACAGACGAAGGAGCCGCAAAGAAGTTATTCAAGGATGAATAATCCCTCAATATAAATATCTCTCACTTATTTAAA", "cleaved RNA product abundance": 0.134}
{"SEQUENCE_STRING": "ACAGACGAAGGAGCCGCAAAGAAGTTATTAAGGGATGAATTATCCCTAAATATAAATATCTCTCACTTATTTAAA", "cleaved RNA product abundance": 0.399}
{"SEQUENCE_STRING": "ACAGACGAAGGAGCCGCAAAGAAGTTATTAAAGGATGAATAATCACTCAATATAAATATCTCTCACTTATTTAAA", "cleaved RNA product abundance": 0.0796}
{"SEQUENCE_STRING": "ACAGACGAAGGAGCCGCAAAGAAGTTATTAAGTGATGATTAATCCCTCAATATAAATATCTCTCACTTATTTAAA", "cleaved RNA product abundance": 0.112}
{"SEQUENCE_STRING": "ACAGACGAAGGAGCCGCAAAGAAGTTATTAAGGAATGAATAATCCTTCAATATAAATATCTCTCACTTATTTAAA", "cleaved RNA product abundance": 0.148}

May I ask what cleaved RNA product abundance has been recorded for ACAGACGAAGGAGCCGCAAAGATGTTATTACGGGATGAATAATCCCTCAATATAAATATCTCTCACTTATTTAAA ?
0.369
